Target: Histone deacetylase
Assay: Inhibition of HDAC in human LoVo/DX cells using Boc-Lys(Ac)-AMC as substrate assessed as release of AMC pre-incubated for 15 mins followed by substrate addition measured after 3 hrs by indirect spectrofluorometric assay
Format: cell-based
Exercise: for every item that follows, state its recorded IC50.
Use mM as the unit, but write only the number.

Exam item: Fill in the recorded IC50 for this compound, with Histone deacetylase as test system: CC(=O)N[C@@H](CSC(=S)NCC1CCCC(CNC(=S)SC[C@H](NC(C)=O)C(=O)O)C1)C(=O)O (stereo partly drawn)
Marked response: 2.68

Exam item: Fill in the recorded IC50 for this compound, with Histone deacetylase as test system: `CC(=O)N[C@@H](CSC(=S)NCc1ccccc1)C(=O)O`
Marked response: 3.44

Exam item: Fill in the recorded IC50 for this compound, with Histone deacetylase as test system: `CC(=O)N[C@@H](CSC(=S)NCCOCCOCCNC(=S)SC[C@H](NC(C)=O)C(=O)O)C(=O)O`
Marked response: 4.37

Exam item: Fill in the recorded IC50 for this compound, with Histone deacetylase as test system: `CC(=O)N[C@@H](CSC(=S)N[C@H]1CC[C@H](NC(=S)SC[C@H](NC(C)=O)C(=O)O)CC1)C(=O)O`
Marked response: 3.74

Exam item: Fill in the recorded IC50 for this compound, with Histone deacetylase as test system: `CCCCCNC(=S)SC[C@H](NC(C)=O)C(=O)O`
Marked response: 3.2

Exam item: Fill in the recorded IC50 for this compound, with Histone deacetylase as test system: `CC(=O)N[C@@H](CSC(=S)Nc1ccc(C)c(NC(=S)SC[C@H](NC(C)=O)C(=O)O)c1)C(=O)O`
Marked response: 0.45

Exam item: Fill in the recorded IC50 for this compound, with Histone deacetylase as test system: `CCCCNC(=S)SC[C@H](NC(C)=O)C(=O)O`
Marked response: 3.46

Exam item: Fill in the recorded IC50 for this compound, with Histone deacetylase as test system: `CC(=O)N[C@@H](CSC(=S)NCCCCNC(=S)SC[C@H](NC(C)=O)C(=O)O)C(=O)O`
Marked response: 2.33

----------
System: BALB/3T3
Assay: Cytotoxicity against mouse BALB/3T3 cells after 72 hrs by SRB assay
Format: cell-based
Conditions: BALB/3T3, 72 h
Simple rule here: IC50 less than 9 µM is satisfied, otherwise not satisfied.

Exam item: Consider the compound CC(=O)N[C@@H](CSC(=S)NCC1CCCC(CNC(=S)SC[C@H](NC(C)=O)C(=O)O)C1)C(=O)O (stereo partly drawn) . Is its IC50 strictly less than 9 µM?
Marked response: satisfied

Exam item: Consider the compound `CCCCCNC(=S)SC[C@H](NC(C)=O)C(=O)O` . Is its IC50 strictly less than 9 µM?
Marked response: not satisfied

Exam item: Consider the compound `CC(=O)N[C@@H](CSC(=S)NCCCCNC(=S)SC[C@H](NC(C)=O)C(=O)O)C(=O)O` . Is its IC50 strictly less than 9 µM?
Marked response: satisfied

Exam item: Consider the compound `CC(=O)N[C@@H](CSC(=S)NCCCNC(=S)SC[C@H](NC(C)=O)C(=O)O)C(=O)O` . Is its IC50 strictly less than 9 µM?
Marked response: satisfied

Exam item: Consider the compound CC(=O)N[C@@H](CSC(=S)NC1CCCCC1NC(=S)SC[C@H](NC(C)=O)C(=O)O)C(=O)O (stereo partly drawn) . Is its IC50 strictly less than 9 µM?
Marked response: not satisfied

Exam item: Consider the compound `COc1ccc(CNC(=S)SC[C@H](NC(C)=O)C(=O)O)cc1` . Is its IC50 strictly less than 9 µM?
Marked response: satisfied

Exam item: Consider the compound `CCCNC(=S)SC[C@H](NC(C)=O)C(=O)O` . Is its IC50 strictly less than 9 µM?
Marked response: not satisfied

Exam item: Consider the compound `CC(=O)N[C@@H](CSC(=S)NCc1ccccc1)C(=O)O` . Is its IC50 strictly less than 9 µM?
Marked response: not satisfied

Exam item: Consider the compound `COc1cccc2c1C(=O)c1c(O)c3c(c(O)c1C2=O)C[C@@](O)(C(=O)CO)C[C@@H]3O[C@H]1C[C@H](N)[C@H](O)[C@H](C)O1` . Is its IC50 strictly less than 9 µM?
Marked response: satisfied

Exam item: Consider the compound `CC(=O)N[C@@H](CSC(=S)N[C@H]1CC[C@H](NC(=S)SC[C@H](NC(C)=O)C(=O)O)CC1)C(=O)O` . Is its IC50 strictly less than 9 µM?
Marked response: satisfied

Exam item: Consider the compound `CC(=O)N[C@@H](CSC(=S)Nc1ccc(NC(=S)SC[C@H](NC(C)=O)C(=O)O)cc1)C(=O)O` . Is its IC50 strictly less than 9 µM?
Marked response: not satisfied

Exam item: Consider the compound `CC(=O)N[C@@H](CSC(=S)NCCc1ccccc1)C(=O)O` . Is its IC50 strictly less than 9 µM?
Marked response: not satisfied

Exam item: Consider the compound `CC(=O)N[C@@H](CSC(=S)NCCOCCOCCNC(=S)SC[C@H](NC(C)=O)C(=O)O)C(=O)O` . Is its IC50 strictly less than 9 µM?
Marked response: satisfied

Exam item: Consider the compound `CC(=O)N[C@@H](CSC(=S)Nc1cccc(NC(=S)SC[C@H](NC(C)=O)C(=O)O)c1)C(=O)O` . Is its IC50 strictly less than 9 µM?
Marked response: not satisfied

Exam item: Consider the compound `CC(=O)N[C@@H](CSC(=S)Nc1ccc(C)c(NC(=S)SC[C@H](NC(C)=O)C(=O)O)c1)C(=O)O` . Is its IC50 strictly less than 9 µM?
Marked response: not satisfied

Exam item: Consider the compound `CC(=O)N[C@@H](CSC(=S)NCCCOCCOCCOCCCNC(=S)SC[C@H](NC(C)=O)C(=O)O)C(=O)O` . Is its IC50 strictly less than 9 µM?
Marked response: satisfied

Exam item: Consider the compound `CCCCNC(=S)SC[C@H](NC(C)=O)C(=O)O` . Is its IC50 strictly less than 9 µM?
Marked response: not satisfied

Exam item: Consider the compound CC(=O)N[C@@H](CSC(=S)NCCCC(C)CNC(=S)SC[C@H](NC(C)=O)C(=O)O)C(=O)O (stereo partly drawn) . Is its IC50 strictly less than 9 µM?
Marked response: satisfied

----------
Target: Histone deacetylase
Assay: Inhibition of HDAC in human LoVo/DX cells using Boc-Lys(Ac)-AMC as substrate assessed as release of AMC pre-incubated for 15 mins followed by substrate addition measured after 3 hrs by indirect spectrofluorometric assay
Type: cell-based
Experimental endpoint: log10 IC50 (log10 of the value in µM)
Hello, just confirming the data are log10 of IC50 with units of µM.

Exam item: Fill in the recorded log10 IC50 for this compound, with Histone deacetylase as test system: CC(=O)N[C@@H](CSC(=S)NCCCC(C)CNC(=S)SC[C@H](NC(C)=O)C(=O)O)C(=O)O (some centres undefined)
Marked response: 3.34

Exam item: Fill in the recorded log10 IC50 for this compound, with Histone deacetylase as test system: `CC(=O)N[C@@H](CSC(=S)Nc1ccc(NC(=S)SC[C@H](NC(C)=O)C(=O)O)cc1)C(=O)O`
Marked response: 2.46

Exam item: Fill in the recorded log10 IC50 for this compound, with Histone deacetylase as test system: CC(=O)N[C@@H](CSC(=S)NC1CCCCC1NC(=S)SC[C@H](NC(C)=O)C(=O)O)C(=O)O (some centres undefined)
Marked response: 3.22

Exam item: Fill in the recorded log10 IC50 for this compound, with Histone deacetylase as test system: `CC(=O)N[C@@H](CSC(=S)NCCCNC(=S)SC[C@H](NC(C)=O)C(=O)O)C(=O)O`
Marked response: 3.78

Exam item: Fill in the recorded log10 IC50 for this compound, with Histone deacetylase as test system: `COc1ccc(CNC(=S)SC[C@H](NC(C)=O)C(=O)O)cc1`
Marked response: 3.47

Exam item: Fill in the recorded log10 IC50 for this compound, with Histone deacetylase as test system: `CC(=O)N[C@@H](CSC(=S)Nc1cccc(NC(=S)SC[C@H](NC(C)=O)C(=O)O)c1)C(=O)O`
Marked response: 2.99

Exam item: Fill in the recorded log10 IC50 for this compound, with Histone deacetylase as test system: `CC(=O)N[C@@H](CSC(=S)NCCCOCCOCCOCCCNC(=S)SC[C@H](NC(C)=O)C(=O)O)C(=O)O`
Marked response: 3.63

Exam item: Fill in the recorded log10 IC50 for this compound, with Histone deacetylase as test system: `CC(=O)N[C@@H](CS)C(=O)O`
Marked response: 3.50

Exam item: Fill in the recorded log10 IC50 for this compound, with Histone deacetylase as test system: `CC(=O)N[C@@H](CSC(=S)NCCc1ccccc1)C(=O)O`
Marked response: 3.54
